Molecular target: Astrosclerin-3 (Astrosclera willeyana, UniProt A6YCJ1)
Assay: biochemical
Format: cell-based
Description: Inhibition of Astrosclera willeyana recombinant GST-tagged astrosclerin 3 expressed in Escherichia coli BL21-DE3-RIPL cells preincubated for 15 mins measured for 10 to 100 secs by stopped flow CO2 hydration assay
Catalogue of log10 of Ki readings, one per entry.
Quick note: numbers are log10 of Ki, with mM as the unit.

As a guide, the following entries are already answered.
[N-]=[N+]=[N-] [SODIUM AZIDE] | 1.44
[Br-].[Na+] [SODIUM BROMIDE] | 1.49
O=[N+]([O-])[O-].[Na+] [SODIUM NITRATE] | 1.88
O=BOB(O)OB(O)OB=O [SODIUM TETRABORATE] | 1.34
O=S(=O)(O)OS(=O)(=O)O [SODIUM PYROSULFATE] | 1.94

Record S [SODIUM HYDROSULFIDE] ; system Astrosclerin-3 (Astrosclera willeyana, UniProt A6YCJ1); log10 of Ki = -0.31

Record [F-].[Na+] [SODIUM FLUORIDE] ; system Astrosclerin-3 (Astrosclera willeyana, UniProt A6YCJ1); log10 of Ki = -0.03

Record O=S([O-])O.[Na+] [SODIUM BISULFITE] ; system Astrosclerin-3 (Astrosclera willeyana, UniProt A6YCJ1); log10 of Ki = -0.49

Record O=P(O)(O)OP(=O)(O)O [SODIUM PYROPHOSPHATE] ; system Astrosclerin-3 (Astrosclera willeyana, UniProt A6YCJ1); log10 of Ki = 1.76

Record O=C([O-])O.[Na+] [SODIUM BICARBONATE] ; system Astrosclerin-3 (Astrosclera willeyana, UniProt A6YCJ1); log10 of Ki = 1.36

Record O=NO [SODIUM NITRITE] ; system Astrosclerin-3 (Astrosclera willeyana, UniProt A6YCJ1); log10 of Ki = 1.80

Record "OB(O)c1ccccc1" ; system Astrosclerin-3 (Astrosclera willeyana, UniProt A6YCJ1); log10 of Ki = -2.02

Record O=C([O-])[O-].[Na+].[Na+] [SODIUM CARBONATE] ; system Astrosclerin-3 (Astrosclera willeyana, UniProt A6YCJ1); log10 of Ki = 1.13

Record CCN(CC)C(=S)S [DITIOCARB SODIUM] ; system Astrosclerin-3 (Astrosclera willeyana, UniProt A6YCJ1); log10 of Ki = -0.35

Record S=C(S)S [SODIUM CARBONOTRITHIOATE] ; system Astrosclerin-3 (Astrosclera willeyana, UniProt A6YCJ1); log10 of Ki = -0.15

Record O=[Se](=O)(O)O [SODIUM SELENATE] ; system Astrosclerin-3 (Astrosclera willeyana, UniProt A6YCJ1); log10 of Ki = -0.06

Record O=S(=O)([O-])[O-].[Na+].[Na+] [SODIUM SULFATE ANHYDROUS] ; system Astrosclerin-3 (Astrosclera willeyana, UniProt A6YCJ1); log10 of Ki = 1.88

====

Target: Astrosclerin-3 (Astrosclera willeyana, UniProt A6YCJ1)
Sequence (A6YCJ1 whole entry): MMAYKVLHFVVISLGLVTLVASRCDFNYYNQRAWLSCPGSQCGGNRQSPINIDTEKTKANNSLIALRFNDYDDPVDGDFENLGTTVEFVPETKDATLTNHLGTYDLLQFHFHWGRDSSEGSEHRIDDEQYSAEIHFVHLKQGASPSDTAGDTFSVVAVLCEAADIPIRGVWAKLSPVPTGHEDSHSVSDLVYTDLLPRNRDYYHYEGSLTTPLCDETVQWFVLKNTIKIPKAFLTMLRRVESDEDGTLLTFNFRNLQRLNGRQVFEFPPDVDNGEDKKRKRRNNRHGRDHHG
property-name: pKi
For clarity, pKi is expressed as the negative log10 of concentration in mol/L.

As a guide, the following entries are already answered.
[I-].[Na+] [SODIUM IODIDE] | 1.98
O=[Te](=O)(O)O [SODIUM TELLURATE] | 3.12
NS(=O)(=O)O [SODIUM SULFAMATE] | 4.89
N#CO [SODIUM CYANATE] | 3.64

pKi in this record for N#C[SeH] [SODIUM SELENOCYANATE] : 3.11

pKi in this record for [Cl-].[Na+] [SODIUM CHLORIDE] : 3.34

pKi in this record for O=S(=O)(O)NS(=O)(=O)O [SODIUM IMINODISULFONATE] : 3.18

FYI, the data here is from ChEMBL document CHEMBL1949581.
